# credit: patent US20240059799A1

# tgt: T1, recombinant human TL1A (human, UniProt O95150 71-251)
# T1 construct: homotrimer; biotinylated for SPR capture; the ELISA paragraphs say only 'recombinant TL1A'; also called TNFSF15
# T1 chain: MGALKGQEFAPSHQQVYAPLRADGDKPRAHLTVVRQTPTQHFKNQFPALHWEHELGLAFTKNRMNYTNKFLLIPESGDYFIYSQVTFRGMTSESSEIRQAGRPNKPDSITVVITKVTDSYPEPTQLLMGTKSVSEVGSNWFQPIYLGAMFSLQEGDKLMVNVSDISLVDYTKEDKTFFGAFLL
# assay_summary: competition ELISA vs bio-TL1A-0002
property_name: Bioactivity relative to TL1A-0002 (fold)
Answer in fold, number only, no unit symbol.

binder: TL1A-0098 (antibody, IgG1, V domains shown, IgG1/kappa variant of TL1A-0002) VH: QVQLVQSGAEVKKPGASVKVSCKASGYDFTYYGISWVRQAPGQGLEWMGWISTYNGNTHYARMLQGRVTMTTDTSTRTAYMELRSLRSDDTAVYYCAREEYYGSGAYRGGMDVWGQGTTVTVSS VL: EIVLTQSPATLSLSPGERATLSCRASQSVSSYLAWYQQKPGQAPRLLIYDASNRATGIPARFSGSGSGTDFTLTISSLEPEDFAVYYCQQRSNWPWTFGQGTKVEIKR
value_unit: fold
Bioactivity relative to TL1A-0002: 1.5
//
binder: TL1A-0021 (antibody, IgG1, V domains shown, IgG1/kappa variant of TL1A-0002) VH: QVQLVQSGAEVKKPGASVKVSCKASGYDFTYYGISWVRQAPGQGLEWMGWISTYNGNDHYARMLQGRVTMTTDTSTRTAYMELRSLRSDDTAVYYCARENYYGSGAYRGGMDVWGQGTTVTVSS VL: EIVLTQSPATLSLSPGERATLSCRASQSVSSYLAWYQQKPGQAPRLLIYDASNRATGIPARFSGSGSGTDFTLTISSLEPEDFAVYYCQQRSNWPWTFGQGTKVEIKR
value_unit: fold
Bioactivity relative to TL1A-0002: 1.3

API: the following record is the query input.
stdin: Which Bioactivity relative to TL1A-0002 value belongs to TL1A-0038 (antibody, IgG1, V domains shown, IgG1/kappa variant of TL1A-0002) VH: QVQLVQSGAEVKKPGASVKVSCKASGYDFTYYGISWVRQAPGQGLEWMGWISTYNGNTHYARMLQGRVTMTTDTSTRTAYMELRSLRSDDTAVYYCARENYYGSGDFRGGMDVWGQGTTVTVSS VL: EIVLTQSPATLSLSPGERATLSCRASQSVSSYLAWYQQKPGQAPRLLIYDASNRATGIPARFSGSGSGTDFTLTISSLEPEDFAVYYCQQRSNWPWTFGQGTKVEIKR ?
stdout: 1.6
